Origin of measurements: the supplement of paper PMC9112550

# Tested on: Escherichia coli TOP10
# procedure_details: shrunken log2 fold change of peptide-encoding DNA abundance (4.5 h post-induction vs induction); higher = less antimicrobial activity (less host growth inhibition)
# reported_conditions: time post-induction: 4.5 h; library: site-saturation at positions 5, 18, 19, 20
Respond with Fulfilled for shrunken log2 fold change values of 0.1 and above, Not fulfilled for values below.

sequence_text: RRIRWRPPRLPRPRPRPMARPRP
measured_on: Escherichia coli TOP10
group_label: Not fulfilled
--
sequence_text: RRIRLRPPRLPRPRPRPVTAPRP
measured_on: Escherichia coli TOP10
group_label: Fulfilled
--
sequence_text: RRIRGRPPRLPRPRPRPPMYPRP
measured_on: Escherichia coli TOP10
group_label: Fulfilled
--
sequence_text: RRIRARPPRLPRPRPRPYRWPRP
measured_on: Escherichia coli TOP10
group_label: Not fulfilled
--
sequence_text: RRIRRRPPRLPRPRPRPPYYPRP
measured_on: Escherichia coli TOP10
group_label: Fulfilled

Attention now shifts to the item below.
Asked: Identify whether the reported shrunken log2 fold change of the following sequence is 0.1 or greater: `RRIRRRPPRLPRPRPRPSSYPRP`
Given back: Not fulfilled

====

# Tested on: Escherichia coli TOP10
# procedure_details: shrunken log2 fold change of peptide-encoding DNA abundance (4.5 h post-induction vs induction); higher = less antimicrobial activity (less host growth inhibition)
# reported_conditions: time post-induction: 4.5 h; library: site-saturation at positions 5, 18, 19, 20
Overview of reported shrunken log2 fold change across a group of sequences:

Some sequences with recorded shrunken log2 fold change:
sequence_text: RRIRDRPPRLPRPRPRPHDFPRP
obs_value: -0.00663

sequence_text: RRIRIRPPRLPRPRPRPTKPPRP
obs_value: -0.0472

sequence_text: RRIRARPPRLPRPRPRPLDHPRP
obs_value: 0.267

sequence_text: RRIRPRPPRLPRPRPRPHVIPRP
obs_value: -0.617

sequence_text: RRIRIRPPRLPRPRPRPDCEPRP
obs_value: -0.0193

sequence_text: RRIRNRPPRLPRPRPRPRHTPRP
obs_value: -0.096

sequence_text: RRIRIRPPRLPRPRPRPIELPRP
obs_value: 0.0658

sequence_text: RRIRLRPPRLPRPRPRPAVMPRP
obs_value: 0.113

Asked: Give reported shrunken log2 fold change value for `RRIRQRPPRLPRPRPRPKCEPRP`
Given back: 0.0276

Asked: Give reported shrunken log2 fold change value for `RRIRDRPPRLPRPRPRPFIYPRP`
Given back: -0.115

Asked: Give reported shrunken log2 fold change value for `RRIRSRPPRLPRPRPRPLMTPRP`
Given back: 0.653

Asked: Give reported shrunken log2 fold change value for `RRIRKRPPRLPRPRPRPCRMPRP`
Given back: -0.00386

Asked: Give reported shrunken log2 fold change value for `RRIRSRPPRLPRPRPRPEQDPRP`
Given back: 0.206

====

Overview of reported shrunken log2 fold change across a group of sequences:
# Test system: Escherichia coli TOP10;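 note: peptides expressed intracellularly from a pBAD plasmid library in pooled LB shake-flask culture, induced with 0.3% L-arabinose, DNA abundance read by NGS, three biological replicates, DESeq2 with apeglm shrinkage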
# procedure_details: shrunken log2 fold change of peptide-encoding DNA abundance (4.5 h post-induction vs induction); higher = less antimicrobial activity (less host growth inhibition)
# reported_conditions: time post-induction: 4.5 h; library: site-saturation at positions 5, 18, 19, 20
Answer as a number with no unit attached.

sequence_text: RRIRVRPPRLPRPRPRPWFVPRP
measured_on: Escherichia coli TOP10
shrunken log2 fold change: -0.475
--
sequence_text: RRIRPRPPRLPRPRPRPHKEPRP
measured_on: Escherichia coli TOP10
shrunken log2 fold change: 0.163
--
sequence_text: RRIRVRPPRLPRPRPRPDRNPRP
measured_on: Escherichia coli TOP10
shrunken log2 fold change: -0.162
--
sequence_text: RRIRWRPPRLPRPRPRPIRKPRP
measured_on: Escherichia coli TOP10
shrunken log2 fold change: 0.636
--
sequence_text: RRIRYRPPRLPRPRPRPRVDPRP
measured_on: Escherichia coli TOP10
shrunken log2 fold change: -0.531
--
sequence_text: RRIRGRPPRLPRPRPRPSIVPRP
measured_on: Escherichia coli TOP10
shrunken log2 fold change: 0.124
--
sequence_text: RRIRPRPPRLPRPRPRPRFQPRP
measured_on: Escherichia coli TOP10
shrunken log2 fold change: -0.0819
--
sequence_text: RRIRSRPPRLPRPRPRPKIRPRP
measured_on: Escherichia coli TOP10
shrunken log2 fold change: -0.177

Asked: For Escherichia coli TOP10, give shrunken log2 fold change of the listed sequence: `RRIRVRPPRLPRPRPRPKVRPRP`
Given back: 0.0291

Asked: For Escherichia coli TOP10, give shrunken log2 fold change of the listed sequence: `RRIRPRPPRLPRPRPRPVMRPRP`
Given back: 0.95

Asked: For Escherichia coli TOP10, give shrunken log2 fold change of the listed sequence: `RRIRSRPPRLPRPRPRPNMCPRP`
Given back: -0.138
